All figures here come from ChEMBL document CHEMBL3616446.

# assayRemarks: Metabolic stability in human microsomes assessed as compound remaining at 1 uM measured at 25 mins
# Assay type: ADME, Microsome
# measurementParameters: read-out: Stability
observedProperty: remaining at 25 min, 1 µM (%)

Below, each entry is followed by its recorded remaining at 25 min, 1 µM result.
Per the record, O=S(=O)(N[C@H]1CC[C@@H](c2nnc3cnc4[nH]ccc4n23)C1)c1cccc(Cl)c1 has remaining at 25 min, 1 µM of 8

Entry O=S(=O)(N[C@H]1CC[C@@H](c2nnc3cnc4[nH]ccc4n23)C1)C1CCC1 , remaining at 25 min, 1 µM reported as 85

Lab note: O=S(=O)(N[C@H]1CC[C@@H](c2nnc3cnc4[nH]ccc4n23)C1)C1CC1 gave remaining at 25 min, 1 µM of 100

I. O=S(=O)(N[C@H]1CC[C@@H](c2nnc3cnc4[nH]ccc4n23)C1)c1ccccc1
II. O=S(=O)(N[C@H]1CC[C@@H](c2nnc3cnc4[nH]ccc4n23)C1)C1CCCC1
input: Among I and II , which shows a numerically higher remaining at 25 min, 1 µM result? Answer format: the label of the selected item.
output: II
(II: 90%, I: 42%)

====

# assayRemarks: Cmax in Sprague-Dawley rat at 10 mg/kg, po
# Assay type: ADME, organism-based
# Design: dose 10 mg/kg, route oral
# measurementParameters: in vivo
observedProperty: Cmax (µg/mL)

# count of solved cases: 2
Cmax in this record for O=S(=O)(N[C@H]1CC[C@@H](c2nnc3cnc4[nH]ccc4n23)C1)C1CC1 : 0.23

Data point: O=S(=O)(N[C@H]1CC[C@@H](c2nnc3cnc4[nH]ccc4n23)C1)C1CCC1 ; Cmax = 0.31

P. O=S(=O)(N[C@H]1CCC[C@@H](c2nnc3cnc4[nH]ccc4n23)C1)C1CC1 (racemic)
Q. c1cc2c(ncc3nnc(C4CCCCC4)n32)[nH]1
input: Among P and Q , whose measured Cmax is the smaller figure? // caller expects the label of the chosen entry
output: P

====

# assayRemarks: Metabolic stability in Sprague-Dawley rat microsomes assessed as compound remaining at 1 uM measured at 25 mins
# Format: ADME, Microsome
# measurementParameters: read-out: Stability
observedProperty: remaining at 25 min, 1 µM (%)

Solved entries:
compound O=S(=O)(N[C@H]1CC[C@@H](c2nnc3cnc4[nH]ccc4n23)C1)c1cccc(Cl)c1 , remaining at 25 min, 1 µM observed: 6

The recorded remaining at 25 min, 1 µM for entry O=S(=O)(N[C@H]1CC[C@@H](c2nnc3cnc4[nH]ccc4n23)C1)C1CCCC1 equals 68

Sure, the documented remaining at 25 min, 1 µM for CCS(=O)(=O)N[C@H]1CC[C@@H](c2nnc3cnc4[nH]ccc4n23)C1 is 100

// remaining at 25 min, 1 µM lookup, compound = O=S(=O)(N[C@H]1CC[C@@H](c2nnc3cnc4[nH]ccc4n23)C1)C1CC1 , result: 98

A. COc1ccc(S(=O)(=O)N[C@H]2CC[C@@H](c3nnc4cnc5[nH]ccc5n34)C2)cc1
B. O=S(=O)(N[C@H]1CC[C@@H](c2nnc3cnc4[nH]ccc4n23)C1)c1ccccc1
input: I'm curious, which of these has a smaller remaining at 25 min, 1 µM number: A or B ? Please indicate the selected item by its label.
output: B

====

# assayRemarks: Oral bioavailability in Sprague-Dawley rat at 10 mg/kg
# Type: ADME, organism-based
# measurementParameters: in vivo
observedProperty: bioavailability (%)

Data point: O=S(=O)(N[C@H]1CC[C@@H](c2nnc3cnc4[nH]ccc4n23)C1)C1CC1 ; bioavailability = 29

a. O=S(=O)(N[C@]12CC[C@](c3nnc4cnc5[nH]ccc5n43)(CC1)CC2)C1CC1
b. O=S(=O)(N[C@H]1CC[C@@H](c2nnc3cnc4[nH]ccc4n23)C1)C1CCC1
input: From the recorded data, which exceeds the other in bioavailability: a or b ? Could you answer with the label of the item you picked?
output: b
(b: 32%, a: 13%)
